system: MS2 coat protein; experiment: apparent KD of MS2 coat protein, switch ON state; designed switch direction (-1 OFF switch, 1 ON switch): -1; higher = weaker reporter binding; conditions: FMN input: 0 or 200 uM; Eterna round: R93 (includes R88 designs)
The following sequences are shown together with reported apparent KD of MS2 coat protein values.
Write the value in nM as a bare number.

Some solved entries appear below for comparison.
The reported apparent KD of MS2 coat protein of the sequence AAAGGACAUGAGGAUCACCCAUGUGAGGAUAUCGGAAAAGGAAAAAAAAAAAAGAAGACGAGAAGGCACACCAA was 38.8

The reported apparent KD of MS2 coat protein of the sequence ACCACACAUGAGGAUCACCCAUGUGAGGAUAUCUAGAAAACCUCAUGUAAAAAAAUCUAGAGAAGGCAUAUGAA [Design 93: Pseudoknot C] was 38.3

The reported apparent KD of MS2 coat protein of the sequence CUCUUGUAAGGAUAUAAAUGAAAAGAAGUGAAAGAAAAGAAUUAGAAGGUACAUGAGGAUCACCCAUGUUAGAA [EteRNA is fun!] was 22.1

The reported apparent KD of MS2 coat protein of the sequence AUCUAGUCAGGAUAUCGAUGAAAUGAAGUGAAAGAAAAGAACGAGAAGGGACAUGAGGAUCACCCAUGUUAGAA [EteRNA is fun!] was 31.2

The reported apparent KD of MS2 coat protein of the sequence AGCAAGAGAGGAUAUACAUAGGAAAAAAAAGUUAGAUCCCUACAUGAGGAUCACCCAUGUAGAAGGCUCUGGCA [Ex2 Design 153: Sub-opt 17] was 42.2

The reported apparent KD of MS2 coat protein of the sequence AAGAAGUGAGGAUAUACAUGAGGAUCACCCAUGUAAAAGAAAGAAAAGGGAAAGAAAAGUAGAAGGCACAAGAA [Maatkare Hatshepsut] was 36.2

The reported apparent KD of MS2 coat protein of the sequence GACUAGUCAGGAUAUACGAACAUGUCAAAAGACGUGAAGGAACAUGAGGAUCACCCAUGUAGAAGGGACUAGCA [Diamond 19] was 25.2

The reported apparent KD of MS2 coat protein of the sequence AGGGAGUAAGGAUAUGAGAAAUAAAAAGAAGGAAAAAAAGAUCAGAAGGUACAUGAGGAUCACCCAUGUGGGAA [milkweed 10] was 43.1

Next:
The reported apparent KD of MS2 coat protein of the sequence CUCAUGUGAGGAUAUCAGUAGUAAAAAAAUAAAAUUACUACUGAGAAGGCACAUGAGGAUCACCCAUGUGCCAA [EX4 337: Super Stable 37] was 21.3

The reported apparent KD of MS2 coat protein of the sequence AAAAAACAUGAGGAUCACCCAUGUGAGGAUAUGAACGAAAAUAAAUAAAAAUAAAAGUUCAGAAGGUACGAAAA [66%, Wbt, 3] was 25.2

###

test system: K4 kissing-loop RNA reporter; test: apparent KD of K4 kissing-loop reporter; higher = weaker reporter binding; conditions: Eterna round: R107; input ligand: arginine 13.2 mM;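 note: bound reporter read as fluorescence of individual clusters on recovered sequencing chips by microscopy, with normalized cluster intensities fitted with a binding model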
The following sequences are shown together with reported apparent KD of K4 kissing-loop reporter values.
Quote the value and follow it with the unit of measurement.

The reported apparent KD of K4 kissing-loop reporter of the sequence AGGGCUGAGAGCGAUACCAGCGGAUACUAUAUGGUCCAAUAGAGUGAUGUUUUAUAAAGCCGCCCUUGGCAGCGCAAUCUAUUAG [XTheo-B4] was 423 nM

Next:
The reported apparent KD of K4 kissing-loop reporter of the sequence AAAUUUUCGAGUGAUGUUCGAAUAAUUUCAGAGGAUAUGCUUAAAAGCAGAAGGCUGUAUUACUAUUUGUUAUUAAAUUUUAUAA [JR_ExcFMNA_Sub001] was 110 nM

The reported apparent KD of K4 kissing-loop reporter of the sequence AUUGAUAUAUAUAUUUGAUUUUUAUGUGAUACCAGACAAGGCAUAGUCCCUUGGCAGCACUUUAUAUUUACGAGUGAUGUUCGUA [JR_SSTheophyA_Sub025] was 180 nM

The reported apparent KD of K4 kissing-loop reporter of the sequence UUAGUAUAGAGAGGAUAUACCUUCCAGUGAUGUUGGAUAGAUGAAUUUAAUCAUCAAGCAUAGCUUGUAGAAGGCUCUAUACAUU [AK1 SS FMN B] was 558 nM

The reported apparent KD of K4 kissing-loop reporter of the sequence AGACUUCACCGAAGGAGCGACGUAGCCUAGUGAUGUUAGGCACGAGAGAAAUCUCGUGUACGUCAGGUAGGUCGCGGUGAAGUCA [Omei KL Arginine B SS C v5] was 630 nM

The reported apparent KD of K4 kissing-loop reporter of the sequence GGAGUUACCUGGGAUACCAGUCGGAGUCUCAGAGCACGGAGUGAUGUUCUGGGAUGUUUCGGCCCUUGGCAGCUCUGGGACUCCA [#2 Exclusion - Theophylline B Attempt #15 (HarryS)] was 209 nM

The reported apparent KD of K4 kissing-loop reporter of the sequence UGUACCGAGUCAGGAUAUGGCGUCGAAAGACGAAAACCAGUGAUGUUGGAAAUCUGCGAAAGCAGUCCAGAAGGGACUUGGUACU [FmnBS 25 #SwitchBubble #StaticStem #DoubleMagnetSystem] was 233 nM

The reported apparent KD of K4 kissing-loop reporter of the sequence GAAUUAUGUAGAAGGAGCGUUAGAAGGUAUAGGUGCGAGUGAUGUUUGGACUUGUUAAUUUGACAGGUAGGUCGCUACAGAAGGA [KL-SSArg B19 #analogue] was 281 nM

The reported apparent KD of K4 kissing-loop reporter of the sequence CCCUUAGACUCGGCCGCCACUCGUACCGAGAGCAUGCCACCCAUUAGUGAUGUUAAUUUGUCCUUGAGGACCGGGAGCCUAGGAA [theeternabot_exclusion_KL_Trp_B_44] was 789 nM

The reported apparent KD of K4 kissing-loop reporter of the sequence AAGAGGUAGGCGGCCGCCACUAGUUGUGAACACAUACGAGCCAGUGAUGUUGGUAUGGUGGGCGGUAGGACCGGGCCUACCUGAA [Exclusion - Tryptophan B (Freestyle 18)] was 481 nM

The reported apparent KD of K4 kissing-loop reporter of the sequence UAGAGCAUCGCAGGAUAUCCUGCUUAACGUUGGAUUCCAGUGAUGUUGGAAAGCCGGCCUAGGGUAGGAGAAGGGCGGAUUUGAA [Edvean] was 151 nM

###

The following sequences are shown together with reported apparent KD of MS2 coat protein values.
test system: MS2 coat protein; test: apparent KD of MS2 coat protein; designed switch direction (-1 OFF switch, 1 ON switch): -1; higher = weaker reporter binding; settings: input ligand: none
Write the value in nM as a bare number.

Some solved entries appear below for comparison.
The reported apparent KD of MS2 coat protein of the sequence CCCAAAGGGACAAGCUUUUACAUGAGGAUCACCCAUGUUUUGGGAGCUCGUCUUAUGGGCCCGGGAAACCCGGGCCC [-38, -58.7 kcal, A 22%] (Eterna round: R97, puzzle: Sensor, turn-off variant 1) was 17.2

The reported apparent KD of MS2 coat protein of the sequence AAGAAACGGCAGGAUAUCCAGUCGAGAGAAAUAGGAGAAGGGCCAACAUGAGGAUCACCCAUGUCGGUGGCCUC [Rariinon] (Eterna round: R97, puzzle: Exclusion 6) was 78.5

The reported apparent KD of MS2 coat protein of the sequence UAGAUGGGAGGAUAUGCGUAGAUGCAGGUUCGUGUGGUGCUACAUGAGGAUCACCCAUGUAGAAGGCCCGUCUU [Mod 7 R3 JL-ex2-2.29 - Jieux - Exclusion 2] (Eterna round: R97, puzzle: Exclusion 2) was 17.6

Next:
The reported apparent KD of MS2 coat protein of the sequence UUUCGGUCAGGAUAUCCCGUACUACUAGCCGCGACUUACGAGGAGAAGGGACAUGAGGAUCACCCAUGUGCGCU [Colors] (Eterna round: R97, puzzle: Exclusion 4) was 14.7

The reported apparent KD of MS2 coat protein of the sequence GGAUCGAAUGUGAGGAUAUACCUAUGGAUACAUAGGUAGAAGGCACAUGAGGAUCACCCAUGUCCUAACGGUCC [Eli bmx4 4.14] (Eterna round: R97, puzzle: Brourd's mod of Exclusion 4) was 347

The reported apparent KD of MS2 coat protein of the sequence GCACGGUUGCUAGGAUAUCCUUGCGAUUAGCAAGGAGAAGGAGCACAUGAGGAUCACCCAUGUACCUCAAUAAUCCUUCCGUGC [Eli exng1 - 028] (Eterna round: R96, puzzle: Exclusion NG 1) was 15.6

The reported apparent KD of MS2 coat protein of the sequence GCCGCCGCCUUGGCGGCGGACAUGAGGAUCACCCAUGUCAAGCUUUUGCUCGUCUUAUUUGGCCGGCUUGCCGGCCA [Olib_1] (Eterna round: R97, puzzle: Sensor, turn-off variant 1) was 26.1

The reported apparent KD of MS2 coat protein of the sequence GGGCCCGGAGGAUAUACAAUGGGCCCGGGAAACCGGGUUUUACAUGAGGAUCACCCAUGUAGAAGGCCGGGCCC [-42.8, -38.99 kcal A 24%, 5a,0] (Eterna round: R97, puzzle: Exclusion 2) was 14.6

The reported apparent KD of MS2 coat protein of the sequence AGAUAGUGCUGAGGAUAUCAGAAUAGAAAGAAAUGAGAAGGCGGACAUGAGGAUCACCCAUGUGAGGUCUUGAGACUACAUGGU [Prohibition 38 - Jieux - Exclusion NG 1] (Eterna round: R96, puzzle: Exclusion NG 1) was 77.3
